Test system: MCF7 breast
assay overview: NCI tumour cell line growth inhibition, 48 h; in the data active means GI50 below about 0.43 µM; inactive means the rest
Labels: active, inactive

- compound: "Cc1nc2sc(C(=O)Nc3cccc4ccccc34)c(N)c2cc1C(O)c1ccccc1 (stereo not given)"
  class label: "active"
- compound: "O=S(=O)(NCCCNc1nccc(-c2c(-c3ccc(F)c(O)c3)nc3sccn23)n1)c1ccc(F)cc1"
  class label: "inactive"
- compound: "O=C1CC(=O)N(C(=O)c2nn(-c3ccc(Cl)cc3)cc2O)N1"
  class label: "inactive"
- compound: "COc1ccc(NC([Se])=NC23CC4CC(CC(C4)C2)C3)cc1"
  class label: "inactive"
- compound: "CCN(Cc1ccccc1)c1ccc(CO)c(Cl)c1"
  class label: "active"
